// provenance: patent US10471082B2

Biological target: UniProt Q9Q6P4
Sequence (Q9Q6P4 1506-1683): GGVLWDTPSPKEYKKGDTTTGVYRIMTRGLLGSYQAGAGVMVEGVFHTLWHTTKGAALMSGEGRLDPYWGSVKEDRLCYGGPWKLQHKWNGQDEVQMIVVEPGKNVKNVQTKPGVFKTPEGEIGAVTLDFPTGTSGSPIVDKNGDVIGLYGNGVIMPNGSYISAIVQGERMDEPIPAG
Sequence (Q9Q6P4 1375-1505): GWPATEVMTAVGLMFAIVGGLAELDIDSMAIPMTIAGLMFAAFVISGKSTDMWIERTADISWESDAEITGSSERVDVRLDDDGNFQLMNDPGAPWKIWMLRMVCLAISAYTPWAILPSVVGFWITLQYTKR
Response field label takes label 1 when IC50 is strictly below 7 µM and label 0 in all other cases.

Molecule	Category label
O=C(OC[C@H]1OC(OC(=O)c2cc(O)c(O)c(OC(=O)c3cc(O)c(O)c(O)c3)c2)C(OC(=O)c2cc(O)c(O)c(OC(=O)c3cc(O)c(O)c(O)c3)c2)[C@@H](OC(=O)c2cc(O)c(O)c(OC(=O)c3cc(O)c(O)c(O)c3)c2)C1OC(=O)c1cc(O)c(O)c(OC(=O)c2cc(O)c(O)c(O)c2)c1)c1cc(O)c(O)c(OC(=O)c2cc(O)c(O)c(O)c2)c1 (stereo partly shown) [Compound VII, Tannic acid, reference compound]	label 1
COCc1cc(C)nc(SCC(=O)c2ccc(O)c(O)c2)c1C#N [Compound I]	label 0
Cc1ccc(C2=NC(=O)/C(=C/c3cc(O)c(O)c(Br)c3)S2)cc1 [Compound III]	label 1
O=c1c(Oc2ccccc2)c(C(F)(F)F)oc2c(O)c(O)ccc12 [Compound IV]	label 1
Cc1sc2nc(SCC(=O)c3ccc(O)c(O)c3)[nH]c(=O)c2c1C [Compound II]	label 0
CCOC(=O)c1oc2c(O)c(O)ccc2c(=O)c1-c1cnn(-c2ccccc2)c1 [Compound V]	label 1
Cc1ccc(C(=O)c2cc(O)c(O)c([N+](=O)[O-])c2)cc1 [Compound VI, Tolcapone, reference compound]	label 1
